B1: LINE1-full (parent)
chain: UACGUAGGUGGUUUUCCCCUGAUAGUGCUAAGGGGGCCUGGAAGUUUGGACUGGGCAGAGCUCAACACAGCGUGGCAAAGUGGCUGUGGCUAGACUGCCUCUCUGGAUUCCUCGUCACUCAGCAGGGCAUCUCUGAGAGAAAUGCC

- Variants of: B1
- protocol notes: self-cleavage, relative activity (ratio to wild type); higher = more cleavage; in vitro, sequencing; the parent is a self-cleaving ribozyme
measured endpoint: self-cleavage
Format: numeric value only, no unit, no commentary.

Solved cases (4 shown):
> print(dat)
   variant.string  measured.endpoint  endpoint.value
1      A50G U132G      self-cleavage            1.15
2       A6G C113A      self-cleavage            1.18
3      U96G U119A      self-cleavage            0.03
4       U12G G44U      self-cleavage             1.1

Proceed to the following item.
Give self-cleavage for U13G A59G 0.12
